Test: qHTS Assay for Modulators of miRNAs and/or Inhibitors of miR-21; note: potency is the fitted concentration of half-maximal effect; nearly all actives have a fitted effect of over 55% in size
Conditions: HeLa miR-21-FLuc reporter, luciferase luminescence, 48 h; actives lower the signal
In all, about 340,000 compounds went through this assay and about 3,300 (0.97%) were called active. Another 9% or so got no clear call; they are omitted. This is one part of the list.
READOUT_KIND: Potency

// solved cases for Potency follow
Cc1ccc(/C=N/Nc2cccc(C(=O)O)c2)s1 | 0.104 µM (active)
Nc1nc(-c2cc3ccccc3o2)cs1 | 2.33 µM (active)
O=C(O)c1cnn(-c2nc(-c3ccc(Br)cc3)cs2)c1C(F)(F)F | 11.7 µM (active)
COc1ccccc1Nc1nc(N)nc(CSC(=S)N2CCOCC2)n1 | 16.5 µM (active)
COc1ccccc1-c1cnn2c(N3CCOCC3)cc(C)nc12 | 14.7 µM (active)

Data request, read-out Potency, for "Cc1[nH]c2ccccc2c1N=Nc1cccc(C(=O)O)c1"
1.85 µM (active)

Data request, read-out Potency, for COc1ccc(C2=NN(C(C)=O)C(c3cccs3)C2)cc1OC (stereo unspecified)
8.26 µM (active)

Data request, read-out Potency, for O=C(NC(N1CCOCC1)C(Cl)(Cl)Cl)c1ccco1 (stereo unspecified)
2.93 µM (active)

Data request, read-out Potency, for "C=CCN1N=C(/C=C/c2ccc(OC)cc2)CCC1=O"
14.7 µM (active)

Data request, read-out Potency, for "Cc1nc2c(-c3ccccc3)c(C)nn2c(N)c1-c1ccccc1"
1.85 µM (active)

Data request, read-out Potency, for "Cc1csc2nc(CSc3nc4ccccc4o3)c(Br)n12"
4.65 µM (active)

Data request, read-out Potency, for "CNc1oc(-c2ccc(Cl)cc2)nc1C#N"
3.29 µM (active)

meta.source: PubChem BioAssay AID2289
